The reported measurements were obtained from the kinase profiling compilation of Christmann-Franck et al. (2016).

# target entity: AURKB (human)
# test description: split-luciferase competition binding
# test settings: compound 10.0 µM
measure: inhibition

Record `NC(=O)Nc1sc(-c2ccc(F)cc2)cc1C(N)=O` : what is its inhibition with AURKB (human)?
56%

Report inhibition for `c1ccc(-c2n[nH]cc2-c2ccnc3ccccc23)nc1` tested on AURKB (human).
25%

For the record `CC(C)(C)n1nc(-c2ccc(Cl)cc2)c2c(N)ncnc21` , what value of inhibition is listed for AURKB (human)?
0%

Request body: readout inhibition, system AURKB (human), query `NC(=O)c1sc(-c2ccsc2)cc1N` . Return the value.
0%

Item: `Cn1cnc2c(NCc3ccccc3)nc(NCCO)nc21` Test system: AURKB (human) Read-out: inhibition Value: ?
4%

Please tell me: inhibition of O=C(NC(NC(=S)Nc1ccc(F)c([N+](=O)[O-])c1)C(Cl)(Cl)Cl)C(c1ccccc1)c1ccccc1 (centres undefined) , system AURKB (human)?
0%

Item `Brc1c(Br)c(Br)c2[nH]nnc2c1Br` with AURKB (human) - inhibition?
2%

Hi! What's the reported inhibition for `Fc1ccc(Cl)cc1-c1nc(Nc2ccncc2)c2nccnc2n1` on AURKB (human)?
12%

Record `CC(C)(C)n1nc(-c2cccc3ccccc23)c2c(N)ncnc21` : what is its inhibition with AURKB (human)?
12%

What value of inhibition on AURKB (human) does `N#CC(=C(\N)Sc1ccccc1N)/C(C#N)=C(/N)Sc1ccccc1N` have?
0%

Give the reported inhibition for `Nc1ccc(-c2cccc3c(=O)cc(N4CCOCC4)oc23)cc1` (system: AURKB (human)).
7%

Observed inhibition on AURKB (human) for `COc1cc2c(Nc3ccc(NC(=O)c4ccccc4)cc3)ncnc2cc1OCCCN1CCOCC1` , please.
55%

Notebook entry, AURKB (human) assay: inhibition of `N#C/C(=C(/N)Sc1ccc(N)cc1)c1ccccc1C(F)(F)F` = ?
1%

State its inhibition on AURKB (human): `O=S(=O)(c1cccc2c(Cl)cccc12)N1CCCNCC1`
13%

Look up inhibition with AURKB (human) for this molecule: `COc1nccc(-c2c(-c3ccc(F)cc3)ncn2[C@H]2CC[C@H](O)CC2)n1`
6%

What measured inhibition is associated with `COc1cc2ncnc(Nc3ccc(F)c(Cl)c3)c2cc1OCCCN1CCOCC1` on AURKB (human)?
27%

What value of inhibition on AURKB (human) does `CC(C)[C@H](CO)Nc1nc(Nc2cc(N)cc(Cl)c2)c2ncn(C(C)C)c2n1` have?
0%

Please state recorded inhibition (tested on AURKB (human)) of `Cc1ccccc1C(=O)c1ccc(Nc2ccc(Br)cc2N)cc1Cl`
0%

Reported inhibition for AURKB (human), given `CC(=O)c1c(O)c(C)c(O)c(Cc2c(O)c3c(c(C(=O)/C=C/c4ccccc4)c2O)OC(C)(C)C=C3)c1O` ?
10%

Test system AURKB (human); read-out inhibition; what value for `Cc1cc(F)c(Nc2ncnc3cc(OCc4ccccc4)ccc23)cc1O` ?
1%

Please provide the recorded inhibition for `CS(=O)(=O)CCNCc1nc(-c2ccc3ncnc(Nc4ccc(OCc5cccc(F)c5)c(Cl)c4)c3c2)cs1` , tested on AURKB (human).
0%

Reported inhibition for AURKB (human), given `CC[C@@H](CO)Nc1nc(NCc2ccccc2)c2ncn(C(C)C)c2n1` ?
0%

Give AURKB (human) inhibition for `Oc1ccc(-c2nc(-c3ccc(F)cc3)c(-c3ccncc3)[nH]2)cc1`
0%

Value wanted: inhibition (AURKB (human)) of entry `O=C1c2ccccc2-c2n[nH]c3cccc1c23`
6%

Hello, I am looking for reported inhibition with AURKB (human) for CS(=O)c1ccc(-c2nc(-c3ccc(F)cc3)c(-c3ccncc3)[nH]2)cc1 (centres undefined) . Could you help?
0%

Which inhibition is reported with AURKB (human) for this entry: `CC(C)N(CCC(=O)c1ccc2ccccc2c1)Cc1ccccc1` ?
0%

inhibition of `CN1CCC(Nc2ncc3ncnc(Nc4ccc(F)c(Cl)c4)c3n2)CC1` on AURKB (human)?
8%

Lookup: inhibition / AURKB (human) / `O=C1NC(=O)C(c2ccccc2[N+](=O)[O-])=C1Nc1ccc(O)c(Cl)c1`
12%

Request - read-out inhibition | tested on AURKB (human) | molecule `COc1ccc(Cl)cc1NC(=O)Nc1cc(C)nc2ccccc12`
14%

Lab note: need inhibition with AURKB (human) for entry `O=C1NC(=O)c2cc(Nc3ccc(F)cc3)c(Nc3ccc(F)cc3)cc21` , please look it up.
3%

Kindly state the measured inhibition obtained for `CCN(CC)CCCCN1c2ccccc2Oc2ccc(Cl)cc21` with AURKB (human).
8%

Please provide the recorded inhibition for `O=C(Nc1cc(C(F)(F)F)cc(C(F)(F)F)c1)c1cc(Cl)ccc1O` , tested on AURKB (human).
9%

Form entry - test system: AURKB (human); read-out: inhibition; molecule: CC1=C(O)C(=O)[C@@H]2OC2C1=O (some centres undefined)
0%

What inhibition appears in the records for this molecule with AURKB (human)? `COc1cc2nccc(Oc3ccc(NC(=O)Nc4ccc(F)cc4F)c(F)c3)c2cc1OC`
71%
